- assaySystem: hMC3-R (human) (UniProt P41968)
- Sequence (P41968 whole entry): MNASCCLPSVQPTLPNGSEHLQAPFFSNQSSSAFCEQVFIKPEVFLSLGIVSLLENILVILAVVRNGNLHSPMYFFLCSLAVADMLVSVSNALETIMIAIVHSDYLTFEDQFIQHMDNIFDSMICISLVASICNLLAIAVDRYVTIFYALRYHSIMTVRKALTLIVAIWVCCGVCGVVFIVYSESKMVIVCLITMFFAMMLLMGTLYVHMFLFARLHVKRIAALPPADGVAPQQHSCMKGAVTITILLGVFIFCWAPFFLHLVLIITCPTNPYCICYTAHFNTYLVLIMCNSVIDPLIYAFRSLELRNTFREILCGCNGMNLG
- measurementDescription: competition with [125I]-NDP-α-MSH, CHO-K1 membranes
pKi: −log10 of the molar value. Bridge positions count the residues as written; N and C are the ends. Square brackets hold non-standard residues; d marks the D form. Ends that are not written are not given here. Bip = N[C@@H](Cc1ccc(-c2ccccc2)cc1)C(=O)O; hArg = N=C(N)NCCCC[C@H](N)C(=O)O; Pen = CC(C)(S)[C@H](N)C(=O)O; Nle = CCCC[C@H](N)C(=O)O; GABA = NCCCC(=O)O; βAla = NCCC(=O)O
pKi: recorded values

binder: Ac-[Nle][Pen]H[dF]RW[GABA]C-NH2 (disulfide 2-8; SMILES CCCC[C@H](NC(C)=O)C(=O)N[C@@H]1C(=O)N[C@@H](Cc2c[nH]cn2)C(=O)N[C@H](Cc2ccccc2)C(=O)N[C@@H](CCCNC(=N)N)C(=O)N[C@@H](Cc2c[nH]c3ccccc23)C(=O)NCCCC(=O)N[C@H](C(N)=O)CSSC1(C)C) [Ac-Nle-c(Pen-His-D-Phe-Arg-Trp-Gaba-Cys)-NH2]
pKi: 7.06
//
binder: [dF]CH[d(Et)Tyr][hArg][Bip][βAla][dC]T-NH2 (disulfide 2-8) [D-Phe-c(Cys-His-D-(Et)Tyr-hArg-Bip-β-Ala-D-Cys)-Thr-NH2]
pKi: 7.07
//
binder: [dF]CH[dF][hArg]W[βAla][dC]T-NH2 (disulfide 2-8; N-terminus assumed; SMILES C[C@@H](O)[C@H](NC(=O)[C@H]1CSSC[C@H](NC(=O)[C@H](N)Cc2ccccc2)C(=O)N[C@@H](Cc2c[nH]cn2)C(=O)N[C@H](Cc2ccccc2)C(=O)N[C@@H](CCCCNC(=N)N)C(=O)N[C@@H](Cc2c[nH]c3ccccc23)C(=O)NCCC(=O)N1)C(N)=O) [D-Phe-c(Cys-His-D-Phe-hArg-Trp-β-Ala-D-Cys)-Thr-NH2]
pKi: 6.91
